- MEASURED ON: T7 RNA polymerase (Escherichia phage T7)
- Sequence (P00573 whole entry): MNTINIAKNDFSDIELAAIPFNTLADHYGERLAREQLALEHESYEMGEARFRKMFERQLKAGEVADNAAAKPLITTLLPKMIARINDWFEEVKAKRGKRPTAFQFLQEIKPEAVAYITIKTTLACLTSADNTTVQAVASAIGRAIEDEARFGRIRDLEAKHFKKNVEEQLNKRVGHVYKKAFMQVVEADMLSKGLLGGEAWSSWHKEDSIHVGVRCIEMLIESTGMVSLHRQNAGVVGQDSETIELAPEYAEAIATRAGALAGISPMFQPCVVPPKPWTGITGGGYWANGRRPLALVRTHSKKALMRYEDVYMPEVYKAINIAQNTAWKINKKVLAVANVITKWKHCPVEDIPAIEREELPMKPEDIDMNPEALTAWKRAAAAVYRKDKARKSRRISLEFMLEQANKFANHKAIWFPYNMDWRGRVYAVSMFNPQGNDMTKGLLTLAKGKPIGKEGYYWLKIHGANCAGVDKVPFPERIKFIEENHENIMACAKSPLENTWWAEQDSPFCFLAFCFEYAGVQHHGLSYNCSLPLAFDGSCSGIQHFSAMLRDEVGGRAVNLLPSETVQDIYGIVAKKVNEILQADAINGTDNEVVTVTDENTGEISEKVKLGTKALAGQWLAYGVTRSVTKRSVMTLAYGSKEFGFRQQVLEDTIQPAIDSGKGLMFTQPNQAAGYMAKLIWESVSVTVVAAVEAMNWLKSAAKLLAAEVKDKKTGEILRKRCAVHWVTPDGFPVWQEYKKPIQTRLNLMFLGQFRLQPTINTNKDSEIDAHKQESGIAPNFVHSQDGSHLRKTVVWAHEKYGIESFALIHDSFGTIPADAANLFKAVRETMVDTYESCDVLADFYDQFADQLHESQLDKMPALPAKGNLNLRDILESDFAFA
- RECORDED CONDITIONS: ABE mRNA MA079; 4 mM analog; 90 minutes; UV absorption

COMPOUND	MEASURED ON	mRNA production yield
COC1C(O[P@@]([O-])(=S)OCC2OC(n3cnc4c(=O)[nH]c(N)nc43)C(O)C2O)C(COP(=O)(O)OP(=O)(O)OP(=O)(O)OCC2OC(n3c[n+](C)c4c(=O)[nH]c(N)nc43)C(O)C2O)OC1n1cnc2c(N)ncnc21 (stereo partly shown)	T7 RNA polymerase (Escherichia phage T7)	slightly lower
COC1C(O[P@]([O-])(=S)OCC2OC(n3cnc4c(=O)[nH]c(N)nc43)C(O)C2O)C(COP(=O)(O)OP(=O)(O)OP(=O)(O)OCC2OC(n3c[n+](C)c4c(=O)[nH]c(N)nc43)C(O)C2O)OC1n1cnc2c(N)ncnc21 (stereo partly shown)	T7 RNA polymerase (Escherichia phage T7)	~4 mg/mL
COC1C(OP(=O)(O)OCC2OC(n3cnc4c(=O)[nH]c(N)nc43)C(O)C2O)C(COP(=O)(O)OP(=O)([O-])OP(=O)(O)OCC2OC(n3c[n+](Cc4ccc(Cl)cc4)c4c(=O)[nH]c(N)nc43)C(O)C2O)OC1n1cnc2c(N)ncnc21 (stereo not shown)	T7 RNA polymerase (Escherichia phage T7)	slightly lower
COC1C(OP([O-])(=S)OCC2OC(n3cnc4c(=O)[nH]c(N)nc43)C(O)C2O)C(COP(=O)(O)OP(=O)(O)OP(=O)(O)OCC2OC(n3c[n+](C)c4c(=O)[nH]c(N)nc43)C(O)C2O)OC1n1cnc2c(N)ncnc21 (stereo not shown) [1007a, m^7G(ppp) Am(ps)G]	T7 RNA polymerase (Escherichia phage T7)	~4 mg/mL
